Biological target: beta-klotho
Experiment: cell-based or functional assay
Items are presented alongside their recorded EC50, ELK-luciferase assay.
Respond with the bare value in nM.

// known answers, use as guide
[[record]]
binder = "dually PEGylated FGF21 mutant R77C, G120C, P171G (ligand, 20 kDa methoxy-PEG-maleimide on Cys 77 and on Cys 120) MHPIPDSSPLLQFGGQVRQRYLYTDDAQQTEAHLEIREDGTVGGAADQSPESLLQLKALKPGVIQILGVKTSRFLCQCPDGALYGSLHFDPEACSFRELLLEDGYNVYQSEAHGLPLHLPCNKSPHRDPAPRGPARFLPLPGLPPAPPEPPGILAPQPPDVGSSDPLSMVGGSQGRSPSYAS"
measurement = 35

[[record]]
binder = "dually PEGylated FGF21 mutant E91C, H125C, P171G (ligand, 20 kDa methoxy-PEG-maleimide on Cys 91 and on Cys 125) MHPIPDSSPLLQFGGQVRQRYLYTDDAQQTEAHLEIREDGTVGGAADQSPESLLQLKALKPGVIQILGVKTSRFLCQRPDGALYGSLHFDPCACSFRELLLEDGYNVYQSEAHGLPLHLPGNKSPCRDPAPRGPARFLPLPGLPPAPPEPPGILAPQPPDVGSSDPLSMVGGSQGRSPSYAS"
measurement = 37


Turning to the following binder.
Query :: Request the reported EC50, ELK-luciferase assay associated with dually PEGylated FGF21 mutant E91C, R175C, P171G (ligand, 20 kDa methoxy-PEG-maleimide on Cys 91 and on Cys 175) MHPIPDSSPLLQFGGQVRQRYLYTDDAQQTEAHLEIREDGTVGGAADQSPESLLQLKALKPGVIQILGVKTSRFLCQRPDGALYGSLHFDPCACSFRELLLEDGYNVYQSEAHGLPLHLPGNKSPHRDPAPRGPARFLPLPGLPPAPPEPPGILAPQPPDVGSSDPLSMVGGSQGCSPSYAS
Result :: 155
